target.system: IDO (Homo sapiens)
Sequence (P14902 whole entry): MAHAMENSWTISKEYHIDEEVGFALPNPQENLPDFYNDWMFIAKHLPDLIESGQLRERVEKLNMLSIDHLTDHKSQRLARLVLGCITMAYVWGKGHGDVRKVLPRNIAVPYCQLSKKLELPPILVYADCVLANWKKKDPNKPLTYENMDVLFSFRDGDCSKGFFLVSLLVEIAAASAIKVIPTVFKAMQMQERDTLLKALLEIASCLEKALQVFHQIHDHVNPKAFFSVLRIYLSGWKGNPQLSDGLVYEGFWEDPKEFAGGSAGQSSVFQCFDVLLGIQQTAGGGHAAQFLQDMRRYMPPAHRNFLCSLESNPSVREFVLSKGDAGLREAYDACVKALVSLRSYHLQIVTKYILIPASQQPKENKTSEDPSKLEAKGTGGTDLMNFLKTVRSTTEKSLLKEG
assay.protocol: SKOV3 kynurenine cell-based assay (IDO induced by IFN-γ)
Parameters: IDO expression was induced in the SKOV3 cells by the addition of 500 ng/ml IFN-γ; endogenous in cells; host or cells: SKOV3 (human ovarian adenocarcinoma), induced with IFN-γ
measurement.conditions: SKOV3 human ovarian adenocarcinoma cells, 500 ng/ml IFN-γ, 48 hours, 500 μM L-tryptophan; read-out: SKOV3 Kynurenine cell based assay pIC50 (converted)

[
  {
    "molecule": "CC1(C)CN(c2cc(Br)cc3[nH]ncc23)CCN1S(C)(=O)=O",
    "target.system": "IDO (Homo sapiens)",
    "IC50": "< 3.16 µM"
  },
  {
    "molecule": "O=S(=O)(Cc1ccccc1)N1CCN(c2cc(Cl)cc3[nH]ncc23)CC1",
    "target.system": "IDO (Homo sapiens)",
    "IC50": "3.24 to 31.6 µM"
  },
  {
    "molecule": "CC(=O)N1CCN(c2cc(Cl)cc3c(N)noc23)CC1",
    "target.system": "IDO (Homo sapiens)",
    "IC50": "> 100 µM"
  },
  {
    "molecule": "CS(=O)(=O)N1CCN(c2cc(Cl)cc3[nH]nc(N)c23)CC1",
    "target.system": "IDO (Homo sapiens)",
    "IC50": "3.24 to 31.6 µM"
  },
  {
    "molecule": "CC(=O)N1CCN(c2cc(C(F)(F)F)cc3[nH]ncc23)CC1(C)C",
    "target.system": "IDO (Homo sapiens)",
    "IC50": "< 3.16 µM"
  },
  {
    "molecule": "CC(=O)N1CCC(c2cc(C3CC3)cc3[nH]ncc23)CC1",
    "target.system": "IDO (Homo sapiens)",
    "IC50": "3.24 to 31.6 µM"
  },
  {
    "molecule": "O=S(=O)(C1CC1)N1CCC(c2cc(Cl)cc3[nH]ncc23)CC1",
    "target.system": "IDO (Homo sapiens)",
    "IC50": "3.24 to 31.6 µM"
  },
  {
    "molecule": "Clc1cc(N2CC=CCC2)c2cn[nH]c2c1",
    "target.system": "IDO (Homo sapiens)",
    "IC50": "3.24 to 31.6 µM"
  },
  {
    "molecule": "CC(C)CC(O)c1cc(Cl)cc2[nH]ncc12 (stereo not drawn)",
    "target.system": "IDO (Homo sapiens)",
    "IC50": "3.24 to 31.6 µM"
  }
]

Where do the numbers come from? From patent US10590086B2.
